B1: RAB22A (parent)
chain: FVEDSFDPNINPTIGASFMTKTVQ

Variants of: B1
METHOD DESCRIPTION: protein stability index of a GFP-peptide fusion (GPS, HEK-293T) (PSI 1-6); higher = more stable;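 note: lentivirally expressed fusions sorted by FACS into six bins by GFP to DsRed ratio, PSI derived from sequencing read proportions per bin multiplied by bin number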
ASSAY SETUP: c terminus: a fixed tail appended
MEASURE: protein stability index

FVEDSFDPNINPTIGASFMTKTVH    2.1
FVEDSFDPNINPTIGASFMEKTVQ    2.39
FVEDSFDPNINPTIGASFMTATVQ    2.03
FVEDSFDPNINPTIDASFMTKTVQ    2.86
FVEDSFDPNIIPTIGASFMTKTVQ    2.23
FVEDSFDPNINPTICASFMTKTVQ    2.03
FVEDSFMPNINPTIGASFMTKTVQ    2.33
FVEDSFDPNMNPTIGASFMTKTVQ    1.99
